assay: Cytotoxicity against human HFF by spectrophotometry; assay type: cell-based; conditions: HFF cells, read-out: TD50 (the source's name)
Exercise: state measured CC50 for each of the compounds provided.

Some compounds with recorded CC50:
COMPOUND | CC50
O=C(O)c1csc(NN=C2CCCC2)n1 | ≥ 320 µM
CCOC(=O)c1csc(N/N=C2/CCCC(C)C2)n1 (configuration not stated) | 84 µM
CCOC(=O)c1csc(N/N=C2/CCCC2C)n1 (configuration not stated) | ≥ 320 µM

For every item below, please supply its CC50.
1. CCOC(=O)c1csc(N/N=C/c2ccco2)n1
2. CC1CC/C(=N/Nc2nc(C(=O)O)cs2)C1 (configuration not stated)
3. CCOC(=O)c1csc(NN=C2CCCC2)n1

(A)
≥ 320 µM
82 µM
≥ 320 µM

(Q) Report CC50 for CCOC(=O)c1csc(N/N=C2/CCC(C)C2)n1 (configuration not stated)
(A) ≥ 320 µM
